# Assayed system: 5-hydroxytryptamine receptor 2A (Rattus norvegicus, UniProt P14842)
# Sequence (P14842 whole entry): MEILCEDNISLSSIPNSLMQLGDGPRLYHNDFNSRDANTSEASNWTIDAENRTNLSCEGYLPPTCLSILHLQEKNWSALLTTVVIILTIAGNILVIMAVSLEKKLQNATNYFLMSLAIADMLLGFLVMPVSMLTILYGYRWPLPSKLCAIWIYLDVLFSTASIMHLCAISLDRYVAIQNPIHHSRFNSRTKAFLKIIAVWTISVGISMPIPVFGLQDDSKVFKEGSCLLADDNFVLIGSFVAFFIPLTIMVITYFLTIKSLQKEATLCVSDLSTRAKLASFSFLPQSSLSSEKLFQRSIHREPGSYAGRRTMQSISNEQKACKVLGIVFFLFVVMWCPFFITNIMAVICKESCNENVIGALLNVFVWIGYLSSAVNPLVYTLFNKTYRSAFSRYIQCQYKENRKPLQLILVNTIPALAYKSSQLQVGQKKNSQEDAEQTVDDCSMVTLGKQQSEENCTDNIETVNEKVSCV
# Assay details: Affinity at 5-hydroxytryptamine 2A receptor of the rat brain cortex was assessed on the basis of their ability to displace [3H]ketanserin
Kindly supply the reported Ki values for the records listed here.
# unit: µM | format: bare number

Req: Tell me reported Ki for `CN1CCN(c2cc(-c3ccco3)nc(Cl)n2)CC1` , tested with 5-hydroxytryptamine receptor 2A (Rattus norvegicus, UniProt P14842).
Resp: 5.96

Req: Same thing, different compound: `CN1CCN(c2cc(-c3cccs3)nc(Cl)n2)CC1`
Resp: 2.72

Req: Same thing, different compound: `CN1CCN(c2nc(Cl)cc(-c3cccs3)n2)CC1`
Resp: 0.353

Req: Same thing, different compound: `Cc1ccc(-c2cc(N3CCN(C)CC3)nc(Cl)n2)cc1`
Resp: 4.22

* * *

# Assayed system: 5-hydroxytryptamine receptor 2A (Rattus norvegicus, UniProt P14842)
# Assay details: Affinity for 5-hydroxytryptamine 2A receptor in rat brain cortex by ability to displace [3H]ketanserin
# Assay type: tissue-based
pKi: −log10 of the molar value.
Outcome label depends on pKi relative to 7: at/above gives label 1, below gives label 0.

Req: Tell me whether pKi is at least 7 here: `Cc1c(-c2cccs2)nc(N2CCN(C)CC2)nc1-c1cccs1`
Resp: label 1

Req: Same thing, different compound: `CN1CCN(c2nc(-c3ccco3)cc(-c3cc4ccccc4s3)n2)CC1`
Resp: label 1

Req: Same thing, different compound: `CN1CCN(c2nccc(-n3ccnc3)n2)CC1`
Resp: label 0

Req: Same thing, different compound: `Cc1ccc(-c2cc(Cl)nc(N3CCN(C)CC3)n2)cc1`
Resp: label 0

Req: Same thing, different compound: `CN1CCN(c2nc(Cl)cc(-c3ccoc3)n2)CC1`
Resp: label 1

Req: Same thing, different compound: `CN1CCN(c2nc(-c3ccsc3)cc(-c3cccs3)n2)CC1`
Resp: label 1

Req: Same thing, different compound: `CN1CCN(c2nc(-c3ccco3)cc(-c3cccs3)n2)CC1`
Resp: label 1

Req: Same thing, different compound: `CN1CCN(c2nc(-c3ccoc3)cc(-c3cc4ccccc4s3)n2)CC1`
Resp: label 1

Req: Same thing, different compound: `CN1CCN(c2nccc(-c3ccsc3)n2)CC1`
Resp: label 0

* * *

# Assayed system: 5-hydroxytryptamine receptor 2A (Rattus norvegicus, UniProt P14842)
# Assay details: Affinity 5-hydroxytryptamine 2A receptor of the rat brain cortex was assessed on the basis of their ability to displace [3H]ketanserin
Reported property: Ki (µM)
# unit: µM | format: bare number

Req: Bench note: what Ki did `CN1CCN(c2nccc(-n3ccnc3)n2)CC1` show?
Resp: 0.384

Req: Same thing, different compound: `CN1CCN(c2nc(Cl)cc(-c3ccoc3)n2)CC1`
Resp: 0.041

Req: Same thing, different compound: `Cc1ccc(-c2cc(Cl)nc(N3CCN(C)CC3)n2)cc1`
Resp: 0.582
